System: Mus musculus
test_name: Biodistribution in mouse B16F0 cells bearing C57B16 mouse tumor at 1.26 to 5.29 MBq, iv after 72 hrs
Format: ADME, organism-based, Neoplasm
measurement_context: in vivo
Property: Drug uptake; scope: individual molecules
Report only the number, with the unit % ID/g understood.

Here is how some molecules turned out for Drug uptake.
- smi: "CCN(CCNC(=O)c1cccc2nc3cc([125I])ccc3nc12)CCOc1cccnc1F.Cl.Cl"
  unit_text: "% ID/g"
  Drug uptake: 5.8
- smi: "CCN(CC)CCNC(=O)c1cnc2cc([125I])ccc2n1.Cl.Cl"
  unit_text: "% ID/g"
  Drug uptake: 12.3

Data request, read-out Drug uptake, for `CCN(CCNC(=O)c1cnc2cc([125I])ccc2n1)CCc1ccnc(F)c1.Cl.Cl`
7.7

Data request, read-out Drug uptake, for `CCN(CCCc1ccnc(F)c1)CCNC(=O)c1cnc2cc([125I])ccc2n1.Cl.Cl`
9.5

Data request, read-out Drug uptake, for `CCN(CCNC(=O)c1ccnc(F)c1)CCNC(=O)c1cnc2cc([125I])ccc2n1.Cl.Cl`
9.6

###

System: Mus musculus
test_name: Biodistribution in mouse B16F0 cells bearing C57B16 mouse tumor at 1.26 to 5.29 MBq, iv after 3 hrs
Assay type: ADME, organism-based, Neoplasm
measurement_context: in vivo
Hi, to clarify the labels: 1.0 covers Drug uptake from 10 % ID/g upward, 0.0 covers anything below 10 % ID/g.

Reference set, count: 2
- smi: "CCN(CCNC(=O)c1ccnc(F)c1)CCNC(=O)c1cnc2cc([125I])ccc2n1.Cl.Cl"
  classification: 0.0
- smi: "CCN(CCNC(=O)c1cccc2c(=O)c3cc([125I])ccc3[nH]c12)CCOc1cccnc1F.Cl"
  classification: 1.0

Does Drug uptake meet or surpass 10 % ID/g for `CCN(CCNC(=O)c1ccc2cc([125I])ccc2n1)CCOc1cccnc1F.Cl.Cl` ?
1.0

Does Drug uptake meet or surpass 10 % ID/g for `CCN(CCNC(=O)c1cnc2cc([125I])ccc2n1)CCNc1cccc(F)n1.Cl.Cl` ?
1.0

Does Drug uptake meet or surpass 10 % ID/g for `CCN(CCNC(=O)c1ccc2cncc([125I])c2n1)CCOc1cccnc1F.Cl.Cl` ?
0.0

Does Drug uptake meet or surpass 10 % ID/g for `CCN(CCNC(=O)c1cn2cc([125I])ccc2n1)CCOc1cccnc1F.Cl.Cl` ?
1.0

Does Drug uptake meet or surpass 10 % ID/g for `CCN(CC)CCNC(=O)c1cnc2cc([125I])ccc2n1.Cl.Cl` ?
1.0

###

Tested on: Mus musculus
test_name: Biodistribution in mouse B16F0 cells bearing C57B16 mouse tumor at 1.26 to 5.29 MBq, iv after 10 days
Format: ADME, organism-based, Neoplasm
measurement_context: in vivo, 240 h
Hi, to clarify the labels: rule met covers Drug uptake from 2 % ID/g upward, rule not met covers anything below 2 % ID/g.

- smi: "CCN(CCNC(=O)c1ccc2cc([125I])ccc2n1)CCOc1cccnc1F.Cl.Cl"
  target_or_test_system: "Mus musculus"
  classification: "rule not met"

Does Drug uptake meet or surpass 2 % ID/g for `CCN(CCNC(=O)c1ccc2cc([125I])ccc2c1)CCOc1cccnc1F.Cl` ?
rule not met

Does Drug uptake meet or surpass 2 % ID/g for `CCN(CCNC(=O)c1cccc2c(=O)c3cc([125I])ccc3[nH]c12)CCOc1cccnc1F.Cl` ?
rule met

Does Drug uptake meet or surpass 2 % ID/g for `CCN(CC)Cc1ccnc(F)c1CNC(=O)c1cnc2cc([125I])ccc2n1.Cl.Cl` ?
rule not met

###

Test system: Mus musculus
test_name: Biodistribution in mouse B16F0 cells bearing C57B16 mouse tumor at 1.26 to 5.29 MBq, iv after 10 days
Assay type: ADME, organism-based, Neoplasm
measurement_context: in vivo, 240 h
recorded_metric: Drug uptake (% ID/g)
Report only the number, with the unit % ID/g understood.

- smi: "CCN(CCNC(=O)c1ccc2cncc([125I])c2n1)CCOc1cccnc1F.Cl.Cl"
  experimental_result: 0.5
- smi: "CCN(CCCc1ccnc(F)c1)CCNC(=O)c1cnc2cc([125I])ccc2n1.Cl.Cl"
  experimental_result: 1.4
- smi: "CCN(CC)CCNC(=O)c1cnc2cc([125I])ccc2n1.Cl.Cl"
  experimental_result: 1.9
- smi: "CCN(CCNC(=O)c1cnc2cc([125I])ccc2n1)Cc1ccnc(F)c1.Cl.Cl"
  experimental_result: 1.9

Shifting focus to the compound that follows.
Data request, read-out Drug uptake, for `CCN(CCNC(=O)c1cccc2nc3cc([125I])ccc3nc12)CCOc1cccnc1F.Cl.Cl`
1.2

###

Test system: Mus musculus
test_name: Biodistribution in mouse B16F0 cells bearing C57B16 mouse tumor at 1.26 to 5.29 MBq, iv after 1 hr
Assay type: ADME, organism-based, Neoplasm
measurement_context: in vivo
recorded_metric: Drug uptake (% ID/g)
Report only the number, with the unit % ID/g understood.

Data request, read-out Drug uptake, for `CCN(CCNC(=O)c1cn2cc([125I])ccc2n1)CCOc1cccnc1F.Cl.Cl`
13.2

Data request, read-out Drug uptake, for `CCN(CCNC(=O)c1ccc2cncc([125I])c2n1)CCOc1cccnc1F.Cl.Cl`
5.6

Data request, read-out Drug uptake, for `CCN(CCNC(=O)c1cnc2cc([125I])ccc2n1)c1cccc(F)n1`
2

Data request, read-out Drug uptake, for `CCN(CCNC(=O)c1cnc2cc([125I])ccc2n1)Cc1ccnc(F)c1.Cl.Cl`
10.3

Data request, read-out Drug uptake, for `CCN(CCNC(=O)c1cnc2cc([125I])ccc2n1)CCNc1cccc(F)n1.Cl.Cl`
13.1

###

System: Mus musculus
test_name: Biodistribution in mouse B16F0 cells bearing C57B16 mouse tumor at 1.26 to 5.29 MBq, iv after 5 days
Format: ADME, organism-based, Neoplasm
measurement_context: in vivo, 120 h
Property: Drug uptake; scope: individual compounds
Please state the number and follow it with the unit.

Here is how some compounds turned out for Drug uptake.
- smi: "CCN(CCCc1ccnc(F)c1)CCNC(=O)c1cnc2cc([125I])ccc2n1.Cl.Cl"
  Drug uptake: "5.1 % ID/g"
- smi: "CCN(CCNC(=O)c1cnc2cc([125I])ccc2n1)CCOc1cccnc1F.Cl.Cl"
  Drug uptake: "5.2 % ID/g"
- smi: "CCN(CCNC(=O)c1cnc2cc([125I])ccc2n1)CCNc1cccc(F)n1.Cl.Cl"
  Drug uptake: "2.6 % ID/g"
- smi: "CCN(CCNC(=O)c1cccc2nc3cc([125I])ccc3nc12)CCOc1cccnc1F.Cl.Cl"
  Drug uptake: "3.7 % ID/g"
- smi: "CCN(CC)Cc1ccnc(F)c1CNC(=O)c1cnc2cc([125I])ccc2n1.Cl.Cl"
  Drug uptake: "2.4 % ID/g"

Shifting focus to the compound that follows.
Data request, read-out Drug uptake, for `CCN(CC)CCNC(=O)c1cnc2cc([125I])ccc2n1.Cl.Cl`
7.3 % ID/g

###

Property: Drug uptake; scope: individual compounds
System: Mus musculus
test_name: Biodistribution in mouse B16F0 cells bearing C57B16 mouse tumor at 1.26 to 5.29 MBq, iv after 6 hrs
Format: ADME, organism-based, Neoplasm
measurement_context: in vivo
Report only the number, with the unit % ID/g understood.

Here is how some compounds turned out for Drug uptake.
- smi: "CCN(CCNC(=O)c1ccc2cncc([125I])c2n1)CCOc1cccnc1F.Cl.Cl"
  recorded_metric: "Drug uptake"
  experimental_result: 5.3
- smi: "CCN(CCNC(=O)c1cnc2cc([125I])ccc2n1)Cc1ccnc(F)c1.Cl.Cl"
  recorded_metric: "Drug uptake"
  experimental_result: 15.4

Data request, read-out Drug uptake, for `CCN(CCNC(=O)c1ccc2cc([125I])ccc2c1)CCOc1cccnc1F.Cl`
7.4

###

System: Mus musculus
test_name: Biodistribution in mouse B16F0 cells bearing C57B16 mouse tumor at 1.26 to 5.29 MBq, iv after 72 hrs
Type: ADME, organism-based, Neoplasm
measurement_context: in vivo
Hi, to clarify the labels: Met covers Drug uptake from 4 % ID/g upward, Not met covers anything below 4 % ID/g.

- smi: "CCN(CCNC(=O)c1cnc2cc([125I])ccc2n1)CCNc1cccc(F)n1.Cl.Cl"
  target_or_test_system: "Mus musculus"
  classification: "Met"
- smi: "CCN(CCNC(=O)c1cnc2cc([125I])ccc2n1)c1cccc(F)n1"
  target_or_test_system: "Mus musculus"
  classification: "Not met"

Does Drug uptake meet or surpass 4 % ID/g for `CCN(CCNC(=O)c1cccc2c(=O)c3cc([125I])ccc3[nH]c12)CCOc1cccnc1F.Cl` ?
Met

Does Drug uptake meet or surpass 4 % ID/g for `CCN(CCNC(=O)c1ccc2cncc([125I])c2n1)CCOc1cccnc1F.Cl.Cl` ?
Not met

###

Test system: Mus musculus
test_name: Biodistribution in mouse B16F0 cells bearing C57B16 mouse tumor at 1.26 to 5.29 MBq, iv after 72 hrs
Assay type: ADME, organism-based, Neoplasm
measurement_context: in vivo
recorded_metric: Drug uptake (% ID/g)
Report only the number, with the unit % ID/g understood.

Here is how some molecules turned out for Drug uptake.
- smi: "CCN(CCNC(=O)c1ccc2cc([125I])ccc2n1)CCOc1cccnc1F.Cl.Cl"
  Drug uptake [% ID/g]: 3.2
- smi: "CCN(CCNC(=O)c1cnc2cc([125I])ccc2n1)CCOc1cccnc1F.Cl.Cl"
  Drug uptake [% ID/g]: 10.3
- smi: "CCN(CCNC(=O)c1cnc2cc([125I])ccc2n1)Cc1ccnc(F)c1.Cl.Cl"
  Drug uptake [% ID/g]: 10

Shifting focus to the molecule that follows.
Data request, read-out Drug uptake, for `CCN(CCNC(=O)c1cn2cc([125I])ccc2n1)CCOc1cccnc1F.Cl.Cl`
8.6
